target-under-test: Y641N EZH2 (Homo sapiens, UniProt Q15910, Y641N)
Sequence (Q15910 whole entry Y641N): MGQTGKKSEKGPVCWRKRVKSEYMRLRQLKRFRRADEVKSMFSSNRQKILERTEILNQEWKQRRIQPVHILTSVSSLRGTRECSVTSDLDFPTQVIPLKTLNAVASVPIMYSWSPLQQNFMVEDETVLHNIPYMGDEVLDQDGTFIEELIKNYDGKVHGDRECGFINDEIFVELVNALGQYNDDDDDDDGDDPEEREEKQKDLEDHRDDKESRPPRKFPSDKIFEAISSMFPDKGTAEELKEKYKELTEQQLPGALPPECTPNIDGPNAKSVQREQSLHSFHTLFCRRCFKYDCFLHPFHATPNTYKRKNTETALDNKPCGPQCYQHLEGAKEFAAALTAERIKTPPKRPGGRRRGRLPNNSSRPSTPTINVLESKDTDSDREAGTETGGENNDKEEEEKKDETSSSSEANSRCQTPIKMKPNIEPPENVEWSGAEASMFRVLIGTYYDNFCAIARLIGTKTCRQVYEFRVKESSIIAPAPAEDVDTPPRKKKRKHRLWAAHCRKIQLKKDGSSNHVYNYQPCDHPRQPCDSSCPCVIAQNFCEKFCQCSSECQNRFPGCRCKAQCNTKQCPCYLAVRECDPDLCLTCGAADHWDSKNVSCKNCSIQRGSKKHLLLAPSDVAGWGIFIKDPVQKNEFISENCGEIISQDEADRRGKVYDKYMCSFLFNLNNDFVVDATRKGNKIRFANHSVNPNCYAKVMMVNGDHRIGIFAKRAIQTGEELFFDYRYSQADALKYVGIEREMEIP
Sequence (O75530 whole entry partner): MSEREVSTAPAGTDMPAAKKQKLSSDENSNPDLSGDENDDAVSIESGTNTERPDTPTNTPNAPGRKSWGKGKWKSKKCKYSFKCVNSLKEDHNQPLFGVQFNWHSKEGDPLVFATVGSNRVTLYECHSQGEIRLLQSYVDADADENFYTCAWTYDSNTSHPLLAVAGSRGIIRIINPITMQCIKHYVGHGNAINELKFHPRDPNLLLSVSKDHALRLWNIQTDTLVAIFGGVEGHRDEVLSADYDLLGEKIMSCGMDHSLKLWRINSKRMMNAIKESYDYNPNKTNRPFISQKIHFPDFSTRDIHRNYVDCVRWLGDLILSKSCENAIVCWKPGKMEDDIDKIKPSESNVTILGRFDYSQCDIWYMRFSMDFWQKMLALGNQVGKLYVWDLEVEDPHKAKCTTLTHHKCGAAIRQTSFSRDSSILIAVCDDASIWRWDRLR
Sequence (Q15022 whole entry partner): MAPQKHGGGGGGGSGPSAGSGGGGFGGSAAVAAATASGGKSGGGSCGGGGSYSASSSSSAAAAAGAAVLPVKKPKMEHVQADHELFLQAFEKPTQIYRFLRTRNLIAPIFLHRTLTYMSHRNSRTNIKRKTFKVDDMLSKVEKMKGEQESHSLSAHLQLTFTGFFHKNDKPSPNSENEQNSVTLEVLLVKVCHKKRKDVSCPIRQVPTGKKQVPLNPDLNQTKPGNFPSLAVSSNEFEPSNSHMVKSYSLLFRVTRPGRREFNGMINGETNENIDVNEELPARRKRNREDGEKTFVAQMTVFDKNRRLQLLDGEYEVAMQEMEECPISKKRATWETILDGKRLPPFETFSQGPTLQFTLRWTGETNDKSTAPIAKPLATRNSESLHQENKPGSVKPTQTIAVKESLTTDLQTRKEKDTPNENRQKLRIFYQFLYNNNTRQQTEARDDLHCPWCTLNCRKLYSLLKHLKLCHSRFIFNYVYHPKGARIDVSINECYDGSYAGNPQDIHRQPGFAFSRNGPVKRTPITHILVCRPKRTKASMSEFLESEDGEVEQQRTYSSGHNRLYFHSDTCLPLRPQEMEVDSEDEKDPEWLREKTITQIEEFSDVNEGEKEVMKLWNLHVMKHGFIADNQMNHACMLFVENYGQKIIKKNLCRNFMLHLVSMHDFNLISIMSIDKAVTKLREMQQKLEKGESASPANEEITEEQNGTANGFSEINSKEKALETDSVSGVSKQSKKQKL
method-description: Y641N EZH2 assay (as EZH2 assay, H3K27Me2 oligonucleosomes as substrate)
Format: biochemical
readout-name: IC50

compound-structure-string	readout-name	measurement
COc1cc(C)[nH]c(=O)c1CNC(=O)c1c(C)n([C@H](C)C2CCN(CC(C)(C)F)CC2)c2ccccc12	IC50	< 100 nM
Cc1cc(C)c(CNC(=O)c2c(C)n([C@H](C)C3CCN(c4cccc(CN5CCOCC5)c4)CC3)c3ccccc23)c(=O)[nH]1	IC50	< 100 nM
COc1cc(C)[nH]c(=O)c1CNC(=O)c1c(C)n([C@H](C)C2CCN(Cc3cc(F)cc(F)c3)CC2)c2ccccc12	IC50	< 100 nM

---

target-under-test: EZH2 (Homo sapiens, UniProt Q15910)
Sequence (Q15910 whole entry): as the sequence (Q15910 whole entry Y641N) above, with N641Y counted along it
Sequence (O75530 whole entry partner): as the sequence (O75530 whole entry partner) above
Sequence (Q15022 whole entry partner): as the sequence (Q15022 whole entry partner) above
method-description: EZH2 assay (rPRC2, 3H SAM methyl transfer to biotinylated oligonucleosomes, FlashPlate)
Assay type: biochemical
measurement-conditions: 2 nM EZH2, 0.2 μM 3H SAM, 0.2 μM biotinylated oligonucleosomes, 3.6 μM H3K27me3 peptide, 60 min; read-out: EZH2_nuc_BSA_Brij_1.5 (IC50)
pIC50: −log10 of the molar value.

compound-structure-string	pIC50
Cc1cc(C)c(CNC(=O)c2c(C)n([C@H](C)C3CCN(S(=O)(=O)C4CNC4)CC3)c3ccccc23)c(=O)[nH]1	> 7.00
COc1cc(C)[nH]c(=O)c1CNC(=O)c1c(C)n([C@H](C)C2CCN(CC(C)=O)CC2)c2ccccc12	> 7.00
Cc1cc(C)c(CNC(=O)c2c(C)n([C@H](C)C3CCN(S(=O)(=O)C4CCNCC4)CC3)c3ccccc23)c(=O)[nH]1	> 7.00

---

target-under-test: EZH2 (Homo sapiens)
method-description: EZH2 assay (rPRC2, 3H SAM methyl transfer to biotinylated oligonucleosomes, FlashPlate)
Assay type: biochemical

compound	target-under-test	IC50
COc1cc(C)[nH]c(=O)c1CNC(=O)c1c(C)n([C@H](C)C2CCN(C(C)(C)C(C)=O)CC2)c2ccccc12	EZH2 (Homo sapiens)	< 100 nM
CCC(C)C(=O)N1CCC([C@@H](C)n2c(C)c(C(=O)NCc3c(OC)cc(C)[nH]c3=O)c3ccccc32)CC1 (stereo partly drawn)	EZH2 (Homo sapiens)	< 100 nM
COc1cc(C)[nH]c(=O)c1CNC(=O)c1c(C)n([C@H](C)C2CCN(CC3COC3)CC2)c2ccccc12	EZH2 (Homo sapiens)	< 100 nM
COc1cc(C)[nH]c(=O)c1CNC(=O)c1c(C)n([C@H](C)C2CCN(C(=O)CC#N)CC2)c2ccccc12	EZH2 (Homo sapiens)	< 100 nM
COc1cc(C)[nH]c(=O)c1CNC(=O)c1c(C)n([C@H](C)C2CCN(C(=O)C3CCC3)CC2)c2ccccc12	EZH2 (Homo sapiens)	< 100 nM
COc1cc(C)[nH]c(=O)c1CNC(=O)c1c(C)n([C@H](C)C2CCN(CCS(C)(=O)=O)CC2)c2ccccc12	EZH2 (Homo sapiens)	< 100 nM
CC(=O)N1CC(N2CCC([C@@H](C)n3c(C)c(C(=O)NCc4c(C)cc(C)[nH]c4=O)c4ccccc43)CC2)C1	EZH2 (Homo sapiens)	< 100 nM
COc1cc(C)[nH]c(=O)c1CNC(=O)c1c(C)n([C@H](C)C2CCN(Cc3ccccn3)CC2)c2ccccc12	EZH2 (Homo sapiens)	< 100 nM
COc1cc(C)[nH]c(=O)c1CNC(=O)c1c(C)n([C@H](C)C2CCN(Cc3ccnc(C#N)c3)CC2)c2ccccc12	EZH2 (Homo sapiens)	< 100 nM
COc1cc(C)[nH]c(=O)c1CNC(=O)c1c(C)n([C@H](C)C2CCN(C(=O)C3(C)CCCC3)CC2)c2ccccc12	EZH2 (Homo sapiens)	< 100 nM
COc1cc(C)[nH]c(=O)c1CNC(=O)c1c(C)n([C@H](C)C2CCN(CC3CC3)CC2)c2ccccc12	EZH2 (Homo sapiens)	< 100 nM
COc1cc(C)[nH]c(=O)c1CNC(=O)c1c(C)n([C@H](C)C2CCN(C[C@H](O)C(F)(F)F)CC2)c2ccccc12	EZH2 (Homo sapiens)	< 100 nM
Cc1cc(Cl)c(CNC(=O)c2c(C)n([C@H](C)C3CCN(CC(C)(C)O)CC3)c3ccccc23)c(=O)[nH]1	EZH2 (Homo sapiens)	< 100 nM
COc1cc(C)[nH]c(=O)c1CNC(=O)c1c(C)n([C@H](C)C2CCN(C(C)C(F)F)CC2)c2ccccc12 (stereo partly drawn)	EZH2 (Homo sapiens)	< 100 nM
COc1cc(C)[nH]c(=O)c1CNC(=O)c1c(C)n([C@H](C)C2CCN(c3cccnc3)CC2)c2ccccc12	EZH2 (Homo sapiens)	< 100 nM
Cc1cc(OC(F)F)c(CNC(=O)c2c(C)n([C@H](C)C3CCN(CCC(F)(F)F)CC3)c3ccccc23)c(=O)[nH]1	EZH2 (Homo sapiens)	< 100 nM
COc1cc(C)[nH]c(=O)c1CNC(=O)c1c(C)n([C@H](C)C2CCN(Cc3cc(C)ncn3)CC2)c2ccccc12	EZH2 (Homo sapiens)	< 100 nM
COc1cc(C)[nH]c(=O)c1CNC(=O)c1c(C)n([C@H](C)C2CCN(C(=O)C3CCOCC3)CC2)c2ccccc12	EZH2 (Homo sapiens)	< 100 nM
CCC(F)(F)CN1CCC([C@@H](C)n2c(C)c(C(=O)NCc3c(OC)cc(C)[nH]c3=O)c3ccccc32)CC1	EZH2 (Homo sapiens)	< 100 nM
CCS(=O)(=O)N1CCC([C@@H](C)n2c(C)c(C(=O)NCc3c(Cl)cc(C)[nH]c3=O)c3ccccc32)CC1	EZH2 (Homo sapiens)	< 100 nM
COCC(F)(F)CN1CCC([C@@H](C)n2c(C)c(C(=O)NCc3c(OC)cc(C)[nH]c3=O)c3ccccc32)CC1	EZH2 (Homo sapiens)	< 100 nM
COc1cc(C)[nH]c(=O)c1CNC(=O)c1c(C)n([C@H](C)C2CCN(C(=O)C3CCOC3)CC2)c2ccccc12 (stereo partly drawn)	EZH2 (Homo sapiens)	< 100 nM
COc1cc(C)[nH]c(=O)c1CNC(=O)c1c(C)n([C@H](C)C2CCN(C(CF)CF)CC2)c2ccccc12	EZH2 (Homo sapiens)	< 100 nM
COc1cc(C)[nH]c(=O)c1CNC(=O)c1c(C)n([C@H](C)C2CCN(C(=O)C(C)(C)C)CC2)c2ccccc12	EZH2 (Homo sapiens)	< 100 nM
COc1cc(C)[nH]c(=O)c1CNC(=O)c1c(C)n([C@H](C)C2CCN(C(=O)C3(C)CN(C)C3)CC2)c2ccccc12	EZH2 (Homo sapiens)	< 100 nM
COc1cc(C)[nH]c(=O)c1CNC(=O)c1c(C)n([C@H](C)C2CCN(c3ncc(F)cn3)CC2)c2ccccc12	EZH2 (Homo sapiens)	< 100 nM
COc1cc(C)[nH]c(=O)c1CNC(=O)c1c(C)n([C@H](C)C2CCN(C(=O)c3ccccc3)CC2)c2ccccc12	EZH2 (Homo sapiens)	< 100 nM
